Reported electrical conductivity values for a set of compounds
conditions: 368.15 K; 101.33 kPa; Liquid; Alternating current cell with electrodes
MEASUREMENT_TYPE: electrical conductivity (S/m)

> print(dat)
                                   compound         measurement.type  observed.measurement
1  CCCC[N+]1(C)CCCC1.N#CN=C=[N-] [1-butyl-1-methylpyrrolidinium dicyanamide]  electrical conductivity                  5.32
2  CC[S+](C)CC.O=S(=O)([N-]S(=O)(=O)C(F)(F)F)C(F)(F)F [diethylmethylsulfonium bis[(trifluoromethyl)sulfonyl]imide]  electrical conductivity                  3.37
3  CC[S+](CC)CC.O=S(=O)([N-]S(=O)(=O)C(F)(F)F)C(F)(F)F [triethylsulfonium bis((trifluoromethyl)sulfonyl)imide]  electrical conductivity                   3.4
4  CCCC[n+]1ccccc1.O=S(=O)([N-]S(=O)(=O)C(F)(F)F)C(F)(F)F [1-butylpyridinium bis[(trifluoromethyl)sulfonyl]imide]  electrical conductivity                  2.16
5  CCCCCCCC[N+](C)(CCCCCCCC)CCCCCCCC.O=C([O-])C(F)(F)F [methyltrioctylammonium trifluoroacetate]  electrical conductivity                0.0647

---

conditions: 328.15 K; 101.33 kPa; Liquid; Alternating current cell with electrodes
MEASUREMENT_TYPE: electrical conductivity (S/m)

> print(dat)
                                   compound  observed.measurement
1  CCCCCCCC[N+](C)(CCCCCCCC)CCCCCCCC.O=C([O-])C(F)(F)F [methyltrioctylammonium trifluoroacetate]                0.0112
2  CCCC[n+]1ccccc1.O=S(=O)([N-]S(=O)(=O)C(F)(F)F)C(F)(F)F [1-butylpyridinium bis[(trifluoromethyl)sulfonyl]imide]                 0.909
3  CC[S+](CC)CC.O=S(=O)([N-]S(=O)(=O)C(F)(F)F)C(F)(F)F [triethylsulfonium bis((trifluoromethyl)sulfonyl)imide]                  1.64
4  CC[S+](C)CC.O=S(=O)([N-]S(=O)(=O)C(F)(F)F)C(F)(F)F [diethylmethylsulfonium bis[(trifluoromethyl)sulfonyl]imide]                  1.61

---

conditions: 438.15 K; 101.33 kPa; Liquid; Alternating current cell with electrodes
MEASUREMENT_TYPE: electrical conductivity (S/m)

> print(dat)
                                   compound         measurement.type  observed.measurement
1  CC[S+](C)CC.O=S(=O)([N-]S(=O)(=O)C(F)(F)F)C(F)(F)F [diethylmethylsulfonium bis[(trifluoromethyl)sulfonyl]imide]  electrical conductivity                  7.38
2  CCCC[n+]1ccccc1.O=S(=O)([N-]S(=O)(=O)C(F)(F)F)C(F)(F)F [1-butylpyridinium bis[(trifluoromethyl)sulfonyl]imide]  electrical conductivity                  5.24
3  CC[S+](CC)CC.O=S(=O)([N-]S(=O)(=O)C(F)(F)F)C(F)(F)F [triethylsulfonium bis((trifluoromethyl)sulfonyl)imide]  electrical conductivity                  7.37
4  CCCC[N+]1(C)CCCC1.N#CN=C=[N-] [1-butyl-1-methylpyrrolidinium dicyanamide]  electrical conductivity                  11.4

---

conditions: 298.15 K; 101.33 kPa; Liquid; Vibrating tube method
Numbers after ± are expanded uncertainties.
MEASUREMENT_TYPE: mass density

> print(dat)
                                   compound  observed.measurement
1  CC[S+](C)CC.O=S(=O)([N-]S(=O)(=O)C(F)(F)F)C(F)(F)F [diethylmethylsulfonium bis[(trifluoromethyl)sulfonyl]imide]   1500.71 ± 3.1 kg/m3
2  CCCC[n+]1ccccc1.O=S(=O)([N-]S(=O)(=O)C(F)(F)F)C(F)(F)F [1-butylpyridinium bis[(trifluoromethyl)sulfonyl]imide]     1448.74 ± 3 kg/m3
3  CC[S+](CC)CC.O=S(=O)([N-]S(=O)(=O)C(F)(F)F)C(F)(F)F [triethylsulfonium bis((trifluoromethyl)sulfonyl)imide]     1460.14 ± 3 kg/m3
4  CCCCCCCC[N+](C)(CCCCCCCC)CCCCCCCC.O=C([O-])C(F)(F)F [methyltrioctylammonium trifluoroacetate]   962.478 ± 2.1 kg/m3

---

Reported electrical conductivity values for a set of compounds
settings: 338.15 K; 101.33 kPa; Liquid; Alternating current cell with electrodes
MEASUREMENT_TYPE: electrical conductivity (S/m)

> print(dat)
                                   compound  observed.measurement
1  CCCC[n+]1ccccc1.O=S(=O)([N-]S(=O)(=O)C(F)(F)F)C(F)(F)F [1-butylpyridinium bis[(trifluoromethyl)sulfonyl]imide]                  1.17
2  CC[S+](CC)CC.O=S(=O)([N-]S(=O)(=O)C(F)(F)F)C(F)(F)F [triethylsulfonium bis((trifluoromethyl)sulfonyl)imide]                  2.03
3  CC[S+](C)CC.O=S(=O)([N-]S(=O)(=O)C(F)(F)F)C(F)(F)F [diethylmethylsulfonium bis[(trifluoromethyl)sulfonyl]imide]                     2
4  CCCCCCCC[N+](C)(CCCCCCCC)CCCCCCCC.O=C([O-])C(F)(F)F [methyltrioctylammonium trifluoroacetate]                0.0185

---

assay: refractive index (Na D-line) (dimensionless); conditions: 303.15 K; 101.33 kPa; Liquid; Standard Abbe refractometry
MEASUREMENT_TYPE: refractive index

> print(dat)
                                   molecule  observed.measurement
1  CCCC[N+]1(C)CCCC1.N#CN=C=[N-] [1-butyl-1-methylpyrrolidinium dicyanamide]                1.4842
2  CCCC[n+]1ccccc1.O=S(=O)([N-]S(=O)(=O)C(F)(F)F)C(F)(F)F [1-butylpyridinium bis[(trifluoromethyl)sulfonyl]imide]                1.4414
3  CC[S+](CC)CC.O=S(=O)([N-]S(=O)(=O)C(F)(F)F)C(F)(F)F [triethylsulfonium bis((trifluoromethyl)sulfonyl)imide]                1.4249
4  CC[S+](C)CC.O=S(=O)([N-]S(=O)(=O)C(F)(F)F)C(F)(F)F [diethylmethylsulfonium bis[(trifluoromethyl)sulfonyl]imide]                1.4219

---

conditions: 318.15 K; 101.33 kPa; Liquid; Falling or rolling sphere viscometry
MEASUREMENT_TYPE: viscosity (mPa·s)

> print(dat)
                                   compound  measurement.type  observed.measurement
1  CC[S+](CC)CC.O=S(=O)([N-]S(=O)(=O)C(F)(F)F)C(F)(F)F [triethylsulfonium bis((trifluoromethyl)sulfonyl)imide]         viscosity                 17.34
2  CC[S+](C)CC.O=S(=O)([N-]S(=O)(=O)C(F)(F)F)C(F)(F)F [diethylmethylsulfonium bis[(trifluoromethyl)sulfonyl]imide]         viscosity                 20.95
3  CCCC[n+]1ccccc1.O=S(=O)([N-]S(=O)(=O)C(F)(F)F)C(F)(F)F [1-butylpyridinium bis[(trifluoromethyl)sulfonyl]imide]         viscosity                  27.9
4  CCCCCCCC[N+](C)(CCCCCCCC)CCCCCCCC.O=C([O-])C(F)(F)F [methyltrioctylammonium trifluoroacetate]         viscosity                 380.8

---

Reported mass density values for a set of molecules
conditions: 308.15 K; 101.33 kPa; Liquid; Vibrating tube method
MEASUREMENT_TYPE: mass density (kg/m3)

> print(dat)
                                   molecule  measurement.units  observed.measurement
1  CC[S+](CC)CC.O=S(=O)([N-]S(=O)(=O)C(F)(F)F)C(F)(F)F [triethylsulfonium bis((trifluoromethyl)sulfonyl)imide]              kg/m3               1450.51
2  CCCCCCCC[N+](C)(CCCCCCCC)CCCCCCCC.O=C([O-])C(F)(F)F [methyltrioctylammonium trifluoroacetate]              kg/m3               956.054
3  CC[S+](C)CC.O=S(=O)([N-]S(=O)(=O)C(F)(F)F)C(F)(F)F [diethylmethylsulfonium bis[(trifluoromethyl)sulfonyl]imide]              kg/m3               1490.96
4  CCCC[n+]1ccccc1.O=S(=O)([N-]S(=O)(=O)C(F)(F)F)C(F)(F)F [1-butylpyridinium bis[(trifluoromethyl)sulfonyl]imide]              kg/m3               1439.32

---

details: 318.15 K; 101.33 kPa; Liquid; Vibrating tube method
Reported mass density values for a set of molecules
MEASUREMENT_TYPE: mass density (kg/m3)

> print(dat)
                                   molecule  measurement.units  observed.measurement
1  CC[S+](CC)CC.O=S(=O)([N-]S(=O)(=O)C(F)(F)F)C(F)(F)F [triethylsulfonium bis((trifluoromethyl)sulfonyl)imide]              kg/m3               1440.97
2  CC[S+](C)CC.O=S(=O)([N-]S(=O)(=O)C(F)(F)F)C(F)(F)F [diethylmethylsulfonium bis[(trifluoromethyl)sulfonyl]imide]              kg/m3                1481.3
3  CCCCCCCC[N+](C)(CCCCCCCC)CCCCCCCC.O=C([O-])C(F)(F)F [methyltrioctylammonium trifluoroacetate]              kg/m3               949.626
4  CCCC[n+]1ccccc1.O=S(=O)([N-]S(=O)(=O)C(F)(F)F)C(F)(F)F [1-butylpyridinium bis[(trifluoromethyl)sulfonyl]imide]              kg/m3               1430.02

Reference source for all entries: the NIST ThermoML archive (doi:10.1021/acs.jced.7b00060)
